experiment: Cytotoxicity in human RD cells assessed as reduction in cell viability incubated for 24 hrs by WST1 assay; assay type: cell-based

[
  {
    "compound": "Cc1cc(C(=O)N[C@@H](Cc2ccc(F)cc2)C(=O)N[C@@H](C[C@@H]2CCCNC2=O)[C@H](C#N)OC(=O)Nc2ccccc2)no1",
    "CC50 at 24 h": "> 100 µM"
  },
  {
    "compound": "Cc1cc(C(=O)N[C@@H](Cc2ccc(F)cc2)C(=O)N[C@@H](C[C@@H]2CCCNC2=O)[C@H](C#N)OC(=O)NC2CC2)no1",
    "CC50 at 24 h": "> 100 µM"
  },
  {
    "compound": "Cc1cc(C(=O)N[C@@H](Cc2ccc(F)cc2)C(=O)N[C@@H](C[C@@H]2CCCNC2=O)[C@@H]2OC(=O)N(C)C2=N)no1",
    "CC50 at 24 h": "> 100 µM"
  }
]
